measured-on: T1, IL-2 receptor βγ complex on pan T cells (human, UniProt P14784 27-551; P31785 23-369)
T1 sequence (looked up) 1: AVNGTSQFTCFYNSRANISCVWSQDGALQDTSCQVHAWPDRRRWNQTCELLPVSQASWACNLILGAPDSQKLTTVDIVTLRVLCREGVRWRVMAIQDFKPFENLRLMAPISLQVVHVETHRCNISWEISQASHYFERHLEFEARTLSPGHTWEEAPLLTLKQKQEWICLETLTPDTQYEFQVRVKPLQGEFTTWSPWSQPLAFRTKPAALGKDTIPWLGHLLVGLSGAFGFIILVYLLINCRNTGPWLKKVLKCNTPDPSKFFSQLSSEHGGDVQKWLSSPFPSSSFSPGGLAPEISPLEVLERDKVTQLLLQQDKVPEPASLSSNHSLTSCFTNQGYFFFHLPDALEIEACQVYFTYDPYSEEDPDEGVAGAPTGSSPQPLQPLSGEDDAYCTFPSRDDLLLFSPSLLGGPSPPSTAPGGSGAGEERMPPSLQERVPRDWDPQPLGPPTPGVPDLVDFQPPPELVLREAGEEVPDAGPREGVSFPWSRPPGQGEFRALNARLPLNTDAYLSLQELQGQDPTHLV
T1 sequence (looked up) 2: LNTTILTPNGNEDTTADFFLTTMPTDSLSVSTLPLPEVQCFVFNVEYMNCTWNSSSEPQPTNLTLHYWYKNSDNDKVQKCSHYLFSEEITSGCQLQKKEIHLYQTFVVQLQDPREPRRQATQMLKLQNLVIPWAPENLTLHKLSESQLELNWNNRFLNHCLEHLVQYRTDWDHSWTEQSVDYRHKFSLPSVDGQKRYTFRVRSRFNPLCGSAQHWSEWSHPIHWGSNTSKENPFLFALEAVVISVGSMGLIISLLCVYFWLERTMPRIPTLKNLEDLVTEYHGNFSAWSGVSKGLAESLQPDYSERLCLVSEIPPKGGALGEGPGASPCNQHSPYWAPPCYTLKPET
run-description: cell-based or functional assay
[ ]: non-standard residue; d: D form. Ygp = O-(8x polyethylene glycol-amino)-tyrosine; Yn3 = O-(9x polyethylene glycol-azido)-tyrosine; hSer = N[C@@H](CCO)C(=O)O; Nle = CCCC[C@H](N)C(=O)O
assay-metric: Average EC50, pSTAT5 assay in pan T cells, MMP2 cleaved molecule (nM)
Kindly answer with a numeric value in nM, unit omitted.

Lookup: Which Average EC50, pSTAT5 assay in pan T cells, MMP2 cleaved molecule reading was recorded for the binder CMP-141, MMP2 cleaved (ligand, not fully specified (residue 23); ends and bridges not checked; also: MMP2-cleaved, remnant of moiety on Lys23 side chain, not given here) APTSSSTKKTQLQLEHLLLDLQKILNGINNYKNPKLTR[Nle]L[hSer][Yn3]KF[Ygp][Nle]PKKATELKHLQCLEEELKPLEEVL[hSer]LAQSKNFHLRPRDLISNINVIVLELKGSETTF[hSer]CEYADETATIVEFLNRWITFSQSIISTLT ?
Found: 0.8

Reference source for all entries: patent US20240417436A1
